Biological target: T1, human C1s (human, UniProt P09871 16-688)
T1 construct: also called hC1s; serum-derived human C1s (CompTech)
T1 sequence: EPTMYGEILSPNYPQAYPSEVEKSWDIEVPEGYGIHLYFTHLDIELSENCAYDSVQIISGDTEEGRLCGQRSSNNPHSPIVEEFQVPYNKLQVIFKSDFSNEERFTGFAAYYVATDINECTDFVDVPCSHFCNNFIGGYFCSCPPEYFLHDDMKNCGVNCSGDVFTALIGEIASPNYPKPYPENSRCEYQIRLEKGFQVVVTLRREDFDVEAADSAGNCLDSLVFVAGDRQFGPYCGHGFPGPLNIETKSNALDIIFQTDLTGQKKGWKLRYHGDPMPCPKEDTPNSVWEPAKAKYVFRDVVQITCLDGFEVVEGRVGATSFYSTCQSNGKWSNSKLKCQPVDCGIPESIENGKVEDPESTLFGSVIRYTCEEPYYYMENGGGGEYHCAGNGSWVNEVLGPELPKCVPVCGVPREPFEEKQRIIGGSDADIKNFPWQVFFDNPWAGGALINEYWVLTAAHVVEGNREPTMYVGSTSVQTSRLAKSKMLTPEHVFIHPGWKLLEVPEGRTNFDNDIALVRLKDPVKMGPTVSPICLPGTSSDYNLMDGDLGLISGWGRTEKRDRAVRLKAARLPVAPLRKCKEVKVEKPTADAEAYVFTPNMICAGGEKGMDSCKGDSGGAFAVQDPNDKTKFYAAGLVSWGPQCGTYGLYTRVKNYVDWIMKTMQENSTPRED
Test: SPR, Ab captured; pH 7.4, 1.2 mM Ca
measurement.name: koff (s⁻¹)
Report the figure in s⁻¹ without appending any unit label.

C1_IPN92H0038-SG4GK/IPN93L0028-SK1 (antibody, human IgG4 S228P, kappa, name in Kabat numbering, V domains shown, also called IPN92H0038/IPN93L0028) VH: EVMLVESGGGLVKPGGSLRLSCAASGFTFSNYAMSWVRQAPGKGLEWVATISSGGSHTYYLDSVKHRFTISRDNSKDTLYLQMNSLRAEDTALYYCARLFTGHAMDYWGQGTLVTVSS VL: QIVLTQSPATLSLSPGERATLSCTASSSVSSSYLHWYQQKPGKAPKLWIYSTSNLASGVPSRFSGSGSGTDYTLTISSLQPEDFATYYCHQYHRHPPITFGQGTKLEIKR = 0.00125

Exercise: Fill blank: measured koff of the binder C1_IPN92H0033-SG4GK/IPN93L0028-SK1 (antibody, human IgG4 S228P, kappa, name in Kabat numbering, V domains shown, also called IPN92H0033/IPN93L0028) VH: EVMLVESGGGLVKPGGSLRLSCAASGFTFSNYAMSWVRQAPGKGLEWVATISSGGSHTYYLDSVKGRFTISRDNSKDTLYLQMNSLRAEDTALYYCARLFTGHAMDYWGQGTLVTVSS VL: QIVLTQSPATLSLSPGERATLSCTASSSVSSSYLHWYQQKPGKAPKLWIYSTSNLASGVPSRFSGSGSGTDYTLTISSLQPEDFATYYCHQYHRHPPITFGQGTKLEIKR is ____.
Solution: 0.00218

Exercise: Also, C1_IPN92H0038-SG4GK/IPN93L0031-SK1 (antibody, human IgG4 S228P, kappa, name in Kabat numbering, V domains shown, also called IPN92H0038/IPN93L0031) VH: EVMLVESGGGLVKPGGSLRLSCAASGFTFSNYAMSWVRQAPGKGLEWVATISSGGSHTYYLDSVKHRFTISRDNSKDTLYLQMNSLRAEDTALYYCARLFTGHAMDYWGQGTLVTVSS VL: QIVLTQSPATLSLSPGERATLSCTASSSVSSSYLHWYQQKPGKAPKLWIYSTSNLASGVPSRFSGSGSGTDYTLTISSLQPEDFATYYCHQYHRHHPITFGQGTKLEIKR please.
Solution: 0.0396

Exercise: Also, C1_IPN92H0033-SG4GK/IPN93L0029-SK1 (antibody, human IgG4 S228P, kappa, name in Kabat numbering, V domains shown, also called IPN92H0033/IPN93L0029) VH: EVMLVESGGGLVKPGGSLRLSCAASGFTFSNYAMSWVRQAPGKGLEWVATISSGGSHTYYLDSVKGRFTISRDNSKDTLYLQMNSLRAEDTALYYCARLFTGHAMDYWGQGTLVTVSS VL: QIVLTQSPATLSLSPGERATLSCTASSSVSSSYLHWYQQKPGKAPKLWIYSTSNLASGVPSRFSGSGSGTDYTLTISSLQPEDFATYYCHQYHRLHPITFGQGTKLEIKR please.
Solution: 0.0074

Exercise: Also, C1_IPN92H0026-SG4GK/IPN93L0024-SK1 (antibody, human IgG4 S228P, kappa, name in Kabat numbering, V domains shown, also called IPN92H0026/IPN93L0024) VH: EVMLVESGGGLVKPGGSLRLSCAASGFTFSNYAMSWVRQAPGKGLEWVATISSGGSHTYYLDSVKHRFTISRDNSKDTLYLQMNSLRAEDTALYYCARLFTGYAMDYWGQGTLVTVSS VL: QIVLTQSPATLSLSPGERATLSCTASSSVSSSYLHWYQQKPGKAPKLWIYSTSNLASGVPSRFSGSGSGTDYTLTISSLQPEDFATYYCHQYYRLHPITFGQGTKLEIKR please.
Solution: 0.00047

Exercise: Also, C1_IPN92H0026-SG4GK/IPN93L0023-SK1 (antibody, human IgG4 S228P, kappa, name in Kabat numbering, V domains shown, also called IPN92H0026/IPN93L0023) VH: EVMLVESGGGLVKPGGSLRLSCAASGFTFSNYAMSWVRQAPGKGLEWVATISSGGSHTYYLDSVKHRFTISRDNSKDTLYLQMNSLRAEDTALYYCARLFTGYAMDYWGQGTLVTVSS VL: QIVLTQSPATLSLSPGERATLSCTASSSVSSSYLHWYQQKPGKAPKLWIYSTSNLASGVPSRFSGSGSGTDYTLTISSLQPEDFATYYCHQYYRHPPITFGQGTKLEIKR please.
Solution: 0.000608
